target: Aldo-keto reductase family 1 member B1 (Homo sapiens, UniProt P15121); assay: Inhibitory Activity against Human recombinant Aldose Reductase (wild type)
observed-property: IC50 (nM)

A = CN1C(=O)c2ccc(Cl)cc2C2(CC(=O)NC2=O)C1=O (configuration not stated)
B = O=C1CC2(C(=O)N1)C(=O)N(Cc1nc3cc(C(F)(F)F)ccc3s1)C(=O)c1ccc(F)cc12 (configuration not stated)
C = O=C1NC(=O)C2(N1)c1cc(F)ccc1-c1ccc(F)cc12
Prompt line: Sort low-to-high on IC50, please. In plain terms: list the labels in the order you were asked to.
Response line: C, A, B

A = O=C(O)Cc1nn(Cc2ccc(Br)cc2F)c(=O)c2ccccc12
B = O=C(O)Cn1c(=O)n(Cc2ccc(Br)cc2F)c(=O)c2ccc(Cl)cc21
C = O=C(O)CC1C(=O)N(Cc2ccc(Br)cc2F)C(=O)c2ccc(F)cc21 (configuration not stated)
Prompt line: I would appreciate it if you could sort these 3 compounds by IC50, starting from the smallest number. In plain terms: list the labels in the order you were asked to.
Response line: B, A, C

* * *

assay: Inhibitory Activity ratio (IC50 ratio) calculated by Human recombinant aldose reductase wild type against Mutant Aldose reductase (W20Y)
observed-property: Ratio

1 = CN1C(=O)c2ccc(Cl)cc2C2(CC(=O)NC2=O)C1=O (configuration not stated)
2 = CN1C(=O)c2ccc(F)cc2C2(CC(=O)NC2=O)C1=O (configuration not stated)
3 = O=C1CC2(C(=O)N1)C(=O)N(Cc1nc3cc(C(F)(F)F)ccc3s1)C(=O)c1ccc(F)cc12 (configuration not stated)
Prompt line: Sort low-to-high on Ratio, please. In plain terms: list the labels in the order you were asked to.
Response line: 3, 1, 2

I = O=C(O)Cn1c(=O)n(Cc2ccc(Br)cc2F)c(=O)c2ccc(Cl)cc21 [ZENARESTAT]
II = O=C1NC(=O)C2(N1)c1cc(F)ccc1-c1ccc(F)cc12
Prompt line: Between I and II , whose measured Ratio reads higher? Label of pick, please.
Response line: II
(II: 48, I: 2.5)

I = O=C(O)Cc1nn(Cc2ccc(Br)cc2F)c(=O)c2ccccc12 [PONALRESTAT]
II = O=C(O)CC1C(=O)N(Cc2ccc(Br)cc2F)C(=O)c2ccc(F)cc21 (configuration not stated)
Prompt line: Between I and II , whose measured Ratio reads higher? Label of pick, please.
Response line: I
(I: 47, II: 21)
